Entry source: ChEMBL document CHEMBL3608279

test system: Liver; assay: Prodrug conversion in rat liver S9 fractions assessed as formation of 1-ethyl-3-[6-fluoro-5-[2-(1-hydroxy-1-methyl-ethyl)pyrimidin-5-yl]-7-[(2R)-tetrahydrofuran-2-yl]-1H-benzimidazol-2-yl]urea by Michaelis-Menten plot analysis; assay type: ADME, subcellular, Liver S9 fraction
measurement.label: Km

Fill in: Km of "CCNC(=O)Nc1nc2cc(-c3cnc(C(C)(C)OP(=O)(O)O)nc3)c(F)c([C@H]3CCCO3)c2[nH]1" is ___ 49.8 µM

----------
system: Liver; test: Prodrug conversion in human liver S9 fractions assessed as formation of 1-ethyl-3-[6-fluoro-5-[2-(1-hydroxy-1-methyl-ethyl)pyrimidin-5-yl]-7-[(2R)-tetrahydrofuran-2-yl]-1H-benzimidazol-2-yl]urea by Michaelis-Menten plot analysis; type: ADME, subcellular, Liver S9 fraction
measurement.label: Km
Please state the value followed by its unit.

Query the reported Km for Liver; item: "CCNC(=O)Nc1nc2cc(-c3cnc(C(C)(C)OP(=O)(O)O)nc3)c(F)c([C@H]3CCCO3)c2[nH]1" 137 µM
